These measurements were taken from the DeepSol protein solubility set.

# METHOD: soluble on expression in E. coli; label from the status in PepcDB or PDB records
VALUE_KIND: soluble on expression in E. coli

Worked set:
1) ENSLIGLNDHTLVTEDDGRRWVTHEPALVYFHNKYWFNIIAMIRNDGVSYYCNLASPYVMDKEALKYIDYDLDIKVLTNGTKHLLDADEYIAHGQLWNYP ... not soluble
2) MNNKKINFGCCNWTRDAMKWRQRFEAADVTWVSRTNNGPADLLAKHRLPDNCSFQYHYYVPPFIVSALHCNHS ... soluble
3) MAEMSEKTPELGDALRVGARVLVRRPSETAATGAAVEDCADLVPAQDRGHEWAPVPRWAVALDDGRLVFADTEDLTVNPSPGAPEGEIGKAVEPK ... not soluble
4) MGSDKIHHHHHHMSTDKLAIIAVTERGRDLAITLTKTVAATIFVPEKHCTEQTNSLTPDFGTAMREIFTKYQALICIMATGIAVRTLAPVIEDKLSDPAVLVMDEHGKFIISLLSGHVGGANELTERIATITGGAAVITTATDRANVAAIDNIAKQLNGYLPDFKATTKRINGLLAAGKEVGLYIDEPLEIDTRGFTMEEVSPQVYISTKYKLQVATHERIQLVPKQFILGVGCRKGVSAETIDAAFTHFCEQENIHPRAFREIHSITLKAEEPAILHLAEKWHVPFIVHPAEELQTVAGKYPTSAFVQKTVQVGNVALSSADIGSNGNVVTSRFAENGVTFAAGKLTKNSEVAK ... not soluble
5) MSVIIISRNQEKLDRAAKKIELNTGGKVKVIAADFTKDDIYGHITENIEGLDIGVLVNNVGILPSQIPCKLLETSDLEERIYDIVNCNVKSMVKMCRIVLPGMQQRRRGVILNVSSGIAKIPCPIYTLYAASKVFVERFSQGLQAEYISKGIIIQTVAPFGVSTAMTGHQKPDMVTFTAEEFVRSSLKYLKTGDQTYGSITHTLLGRIVQSIPTWVLQSETFQHHFQEYVKNRDRR ... not soluble
6) MDLQSTPLKGVVRSSEDGLFYLFPIQSLSTLQEMKGHLTCAIDVLSNPDESDVEKRLDAVRTLNSLVAALSVNDGDHYDVIDTAFEEIRE ... not soluble
7) RLQSRILAGLLHTVVRYRRKVVRDNLTRCFPEKSLQEIRRIERRFYYNFTYQILSSFKLLTYSQAQLRRHISFENLDVLIRLRAEGHPAILLMMGHFGNWEYFSGSQAIIKDLGLQIYQIFRPLKSTSSDRLMHRIRERFGSRGIAKHDVPRELLRLVRNPIPTETP ... not soluble
8) MILRTSEETISTVQEKQQNISPLVRERGPQRVAAHITGTRGRSNTLSSPNSKNEKALGRKINSWESSRSGHSFLSNLHLRNGELVIHEKGFYYIYSQTYFRFQEEIKENTKNDKQMVQYIYKYTSYPAPILLMKSARNSCWSKDAEYGLYSIYQGGIFELKENDRIFVSVTNEHLIDMDHEASFFGAFLVG ... soluble

Data request: Tell me the measured soluble on expression in E. coli of MGSDKIHHHHHHMANLLTINHLSYSRNLQLILKDLNLELPYGQIVGLLGTNGAGKTTLMRLIAGNYIDRKNSISINTETNSAVRKSLVSFTEQVGGWSGHPRIFKIGNFYDALYEDFNLTTFNQLLSNLNLSPDQRVNQLSKGNFRKLVIAVTLARQTDLYLLDEPFDGIDSMTRKKIISSIIQWKPENATVLVSDHHVGDIANLLDQVVIIKDQHVAAQEAADTIRETLGKDIETYYEDFYREEL , please.
Data returned: not soluble

* * *

# METHOD: soluble on expression in E. coli; label from the status in PepcDB or PDB records
VALUE_KIND: soluble on expression in E. coli

1. MIKPALLDKKIEKPHSWEDIPHGEWICELIQSRLDEWCPKLFGYHMLKIGGLSAELDSRFCNIKHQVNLDNKNSLRNITAELPQLPFLEKSIDACVLAHQLDYSSDPHQLLREIDRVLIGDGYVILTGFNPMSAIGLASLFPWRKNNLPWSGRMFTPHRIKDWLSVLNFEVVYSDCFALAPLTRYRTMWTWFEGLGGDAVKPISGIYFIVARKRTYPLRPIKSAWKKKPKLAPISVAQTRQGKMKSD ... not soluble
2. MGTVLFEDKASETKGSDIYHRIIPDAESYIKEQARTVLATLYNSPEDSITPVNKIHYTLEDIEGISAKGGGNGDVTIFYSTRHIEKSFAENDTAKLFFETRGVLLHELTHAYQLEPQGIGSYGTNRVFWAFIEGMADAVRVANGGFDGPNARPKGGNYMDGYRTAGYFFVWLRDNKDPEFLRKFNRSTLEVIPWSFDGAIKHILGTEYSIDELWHEYQVAVGDIQVLEHHHHHH ... not soluble
3. MGSDKIHHHHHHMKYLPLYPILARYPFLRIASRVFSFNIEDELRKFLDTVEAAKRIVDKAIDGRVEYDRFTDESEFFCLGCEENCYDCQKRGTLEGCDLCMGCFENCSLYYPREAVERFYTNAKLSLLTYIASRMIVSAMEDWVRMRYAVNEASYYSRLLREDVEESGKEPIVRLVAIDLGAKLKGWKMHVSTFVRVSARIKDDKWRLVNRKLRNGWVETTKAEVLRGLEELLRMKLFEKVPVSEAVSEAVRELSRKAKRESEKFAMDLGEVDLNCLPPCMREILSELQRGMNIPHTARFAITSFLLNIGMTVDEIIALFKSAPDFDDEKTRYQVEHIAGERGKGAEYTSPSCDTMRTYSNCVADCRVSHPLIYYKKCKSKS ... not soluble

* * *

# METHOD: soluble on expression in E. coli; label from the status in PepcDB or PDB records
VALUE_KIND: soluble on expression in E. coli

1. DSLVFVQTDKSIYKPGQTVKFRVVSMDENFHPLNELIPLVYIQDPKGNRIAQWQSFQLEGGLKQFSFPLSSEPFQGSYKVVVQKKSGGRTEHPFTVEEFVLP ... soluble
2. MGSDKIHHHHHHMAENFLTQDEVDALLNFENGSKHQQTAQKENEVSYPGGVRPYNMATQERIVRGRMPALEIINARFANSLQIGLYNFLRRGVDISAGSIKTIKYSEFTRSLVVPANINLVSMKPLRGTALFTIDPNLIFLIVDNMFGGDGRFHTRVEGREFTLTEQGIIRRLLDVLFEHYEKAWQSVYPVKFEYIRAEMNPQFANIVTPTDIVVASAFELNLGGNRGEFYTCIPYTMLEPIRDLLNNSMQEDRAEVDKNWIKSLTRQVQGAEIEIIANLGQTQVTLHQILNMQEGDVIALDIPDTVVAIANNVPIMDCHYGILNGHYALKVKTVRSPNETD ... not soluble
3. MGDELHVIVARSVNVTHKEPPVVPDEQRREMVGALKPVDEAHLGHSEDIFIPIERIEPDIIALGYDQHHDDEQLEAALSARGIDCDICRASPLETEAADRVLSTGRIIDRILDERS ... not soluble
4. MRHFDASQPLRVAVLGTGFGSKVHIPALQHHSETTVQAVYHRQPDRAAAIAVQFGIPNAYSDLDQLLADPAIEAVTIASPPFLHYPMAWAALSAGKSVLLEKPTTLNVEEARALWKLASSQGLTVTLDFEYRFVPAWQYVAELLAEGVIGQPWLVKLDWLMSSRADASRPWNWYALRSQGGGALGALGSHSFDYLAWLFGPARRLQARLFTAIQERPDATTGELKPVDSDDTDLIQLELAEGVPCQISLSSVFRQGRGHWLEVYGDRGTLILGSSNQKDYVHGFQVWFASAGQALQELTVPQRLAFRQEFADGRLAPFLRVVDHWLADLRHGQMTAPSLKEGLYSQLLIDLCWQSQRSGEWQTVPELNRFLLEHHHHHH ... not soluble
5. MILDRERTTGSLFERMEASSARNRQGGSIHSLRQSIRQNLRNILNTRSGSCRGAPELGIDEPEGAENFRESMSRAIEQCIERYEPRISHAEVQAVVSSASSPLDMTFHITAWVTFNETHEVLEFDMAPNGSQHYRVD ... soluble

Data request: Look at this sequence and give its reported soluble on expression in E. coli. MMIEGLEKMLAKGVDNALLRFGLGKGYLDAGDAERAAEHLQRCVEQDPKYSAGWKLLGKARQAAGDLAGARQAWEQGLATAATHGDKQAEKEMTVFLRKLDRART
Data returned: not soluble

Data request: What do you get for MGEAETPSFEMTWSSTTSSGYCSQEDSDSELEQYFTARTSLVRRPRRDQDEAVERETPDLSQAETEQKIKDYNGQINSNLFMSLNKDGSYTGFIKVQLKLVRPVSVPSSKKPPSLQDARRGTGRSTAVKRRTSFYLPKDAIKHLHVLSRTRAREVIEALLRKFMVVDDPRKFALFERTERHGQVYLRKLSDDEQPLKLRLLAGPSEKALSFVLKENDSGEVNWDAFSMPELHNFLRILQREEEEHLRQILQKYSRCRQKIQEALHACPLG ?
Data returned: soluble
